- tested-system: GlyT1 transporter (Homo sapiens)
- Construct: endogenously expressing the GlyT1 transporter
- Sequence (P48067 1-706): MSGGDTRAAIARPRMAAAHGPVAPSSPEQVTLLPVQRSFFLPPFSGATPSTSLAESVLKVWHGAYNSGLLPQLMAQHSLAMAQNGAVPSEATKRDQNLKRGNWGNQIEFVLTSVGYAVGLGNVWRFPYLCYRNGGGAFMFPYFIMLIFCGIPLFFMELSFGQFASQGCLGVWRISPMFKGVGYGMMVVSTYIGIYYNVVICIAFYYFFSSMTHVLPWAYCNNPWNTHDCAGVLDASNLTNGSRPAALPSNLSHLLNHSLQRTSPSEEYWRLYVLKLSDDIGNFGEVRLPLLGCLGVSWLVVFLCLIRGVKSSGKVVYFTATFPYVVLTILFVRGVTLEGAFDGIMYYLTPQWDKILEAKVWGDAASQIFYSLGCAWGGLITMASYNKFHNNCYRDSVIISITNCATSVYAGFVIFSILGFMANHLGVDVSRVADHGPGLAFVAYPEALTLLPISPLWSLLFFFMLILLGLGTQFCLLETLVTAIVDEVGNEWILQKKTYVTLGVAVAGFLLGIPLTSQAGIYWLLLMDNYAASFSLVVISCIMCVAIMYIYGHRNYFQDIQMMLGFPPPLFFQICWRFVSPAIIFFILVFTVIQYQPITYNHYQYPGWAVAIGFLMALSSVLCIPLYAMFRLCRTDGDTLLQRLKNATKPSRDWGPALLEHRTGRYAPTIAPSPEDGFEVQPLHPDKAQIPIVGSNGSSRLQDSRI
- assay-summary: GlyT1 assay: 3H-glycine uptake into SK-N-MC cells (Cytostar-T format)
- condition-label: glycine uptake in human SK-N-MC cells endogenously expressing GlyT1; 500 nM glycine, 1% DMSO, signal recorded over 60 min
pIC50: −log10 of the molar value.
endpoint-label: pIC50

1. C[C@H](Oc1ccc(S(C)(=O)=O)cc1C(=O)N1CC2CC2(c2nnc(C(F)(F)F)o2)C1)C(F)(F)F (single isomer, unassigned) [Example 127]
2. CC1(C)Cc2cc(S(C)(=O)=O)cc(C(=O)N3CC4CC4(c4noc(C(F)(F)F)n4)C3)c2O1 (racemic) [Example 99]
3. C[C@H](Oc1ccc(S(C)(=O)=O)cc1C(=O)N1CC2CC2(c2nc(C3CC3)no2)C1)C(F)(F)F (single isomer, unassigned) [Example 144]
4. Cc1nc(C23CC2CN(C(=O)c2cc(S(C)(=O)=O)ccc2O[C@@H](C)C(F)(F)F)C3)no1 (single isomer, unassigned) [Example 7]
(Q) // ascending sort on recorded pIC50 Please write the labels in the order that was asked for.
(A) 1, 2, 3, 4
(1: 5.58, 2: 6.54, 3: 6.79, 4: 8.40)

1. C[C@H](Oc1ccc(S(C)(=O)=O)cc1C(=O)N1CC2CC2(c2nnc(C(F)(F)F)o2)C1)C(F)(F)F (single isomer, unassigned) [Example 126]
2. C[C@H](Oc1ccc(C#N)cc1C(=O)N1CC2CC2(c2noc(C(F)(F)F)n2)C1)C(F)(F)F (single isomer, unassigned) [Example 89]
(Q) Parameter check: reported pIC50 is higher for which label, 1 or 2 ? Field: selected label. Fill in the label of the entry you choose.
(A) 1
